B1: ZNF263 (parent)
chain: RTHTGEKPYKCTLCGENFSHRSNL

- Variants of: B1
- test-summary: protein stability index of a GFP-peptide fusion (GPS, HEK-293T) (PSI 1-6); higher = more stable;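 also: lentivirally expressed fusions sorted by FACS into six bins by GFP to DsRed ratio, PSI derived from sequencing read proportions per bin multiplied by bin number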
- measurement-parameters: c terminus: a fixed tail appended
Measured protein stability index values are reported for all entries that follow.
recorded-endpoint: protein stability index

- RTHTGEQPYKCTLCGENFSHRSNL [K7Q]: 1.71
- RTHTGEKAYKCTLCGENFSHRSNL [P8A]: 2.1
- RTHTGEKPYKCTLCGENFSHRKNL [S22K]: 2.46
- RTHTGEKPYKCTLCGECFSHRSNL [N17C]: 2.25
- RTHTGEKPYKATLCGENFSHRSNL [C11A]: 2.67
- CTHTGEKPYKCTLCGENFSHRSNL [R1C]: 3.43
- RTHTGFKPYKCTLCGENFSHRSNL [E6F]: 1.62
- RTHTGIKPYKCTLCGENFSHRSNL [E6I]: 1.69
- RTHTGEKPYKCTLCGENGSHRSNL [F18G]: 2.29
- RTHTGEKPCKCTLCGENFSHRSNL [Y9C]: 3.37
- RTHTGEKPYKCTLCGENFSHHSNL [R21H]: 2.21
- RTHTGEKPYKCTHCGENFSHRSNL [L13H]: 2.06
- RTHTGEKPYKCTLCSENFSHRSNL [G15S]: 1.62
- RTHTGEKPYKCTLCQENFSHRSNL [G15Q]: 2.15
- RTHTGEKPYKCTLCGENPSHRSNL [F18P]: 2.19
- RTHTGEKPYKCTLCGENFSHCSNL [R21C]: 2.46
- RYHTGEKPYKCTLCGENFSHRSNL [T2Y]: 1.45
- RTHTGEKPYKCGLCGENFSHRSNL [T12G]: 1.74
- RTHTGEKPYKCTLCGPNFSHRSNL [E16P]: 1.94
- RTHTGEKPYKCTLCGENFSHRSNM [L24M]: 1.91
- RTHTGEKPYKMTLCGENFSHRSNL [C11M]: 2.78
- RQHTGEKPYKCTLCGENFSHRSNL [T2Q]: 2.02
